System: MDR1
Assay: in vitro
Conditions: dog, MDCK-MDR1, pH 7.4, MDCK-MDR1: Papp A-B (10^−6, cm/s)
Cut-off 10 ×10⁻⁶ cm/s on Papp A→B at 120 min, 5 μM: below means yes, at or above means no.

Compound	Qualitative Label
CN(c1cnc(-c2cc3oc(C(=O)N4CCC4)cc3cc2O)cn1)[C@@H]1CC2CC[C@H](N2)[C@@H]1F (single isomer, unassigned) [Compound 20E1]	yes
CN(c1cnc(-c2cc(F)c(-c3ccn(C)c(=O)c3)cc2O)cn1)[C@@H]1C[C@@]2(C)CC[C@](C)(N2)[C@@H]1F [Compound 62E1]	yes
CN(c1cnc(-c2cc(F)c(-c3cnn(C)c3)cc2O)cn1)[C@@H]1C[C@@]2(C)CC[C@](C)(N2)[C@@H]1F [Compound 58E1]	yes

stdin: Here's an entry: O=c1cc(-c2cc(O)c(-c3cnc(N(C4CC4)[C@@H]4CC5CC[C@H](N5)[C@@H]4F)cn3)cc2F)ccn1CF (single isomer, unassigned) [Compound 39E1] . Is its Papp A→B at 120 min, 5 μM below 10 ×10⁻⁶ cm/s?
stdout: yes

stdin: Here's an entry: CN(c1cnc(-c2ccc(-c3cn[nH]c3)cc2O)cn1)[C@H]1CC2CC(F)(F)[C@H](C1)N2 (single isomer, unassigned) [Compound 9E2] . Is its Papp A→B at 120 min, 5 μM below 10 ×10⁻⁶ cm/s?
stdout: no

stdin: Here's an entry: COc1cc(-c2ccc(-c3cnc(N(C)[C@@H]4CC5N[C@H](C4)CC5(F)F)cn3)c(O)c2)cnn1 (single isomer, unassigned) [Compound 68E1] . Is its Papp A→B at 120 min, 5 μM below 10 ×10⁻⁶ cm/s?
stdout: yes

====

Test system: MDR1
Assay: in vitro
Conditions: dog, MDCK-MDR1, pH 7.4, MDCK-MDR1: Papp A-B (10^−6, cm/s)
Measurement Name: Papp A→B at 120 min, 5 μM (×10⁻⁶ cm/s)
Give bare numbers, in ×10⁻⁶ cm/s.

Sample records with Papp A→B at 120 min, 5 μM:
Compound	Target Of Assay	Unit	Papp A→B at 120 min, 5 μM
COc1cc(-c2cc(O)c(-c3cnc(N(C4CC4)[C@H]4C[C@@H]5CCC(N5)[C@H]4F)cn3)cc2F)ccn1 (single isomer, unassigned) [Compound 36E2]	MDR1	×10⁻⁶ cm/s	0.59
CN(c1cnc(-c2cc3ccc(OCF)nc3cc2O)cn1)[C@@H]1CC2CC[C@H](N2)[C@@H]1F (single isomer, unassigned) [Compound 19E1]	MDR1	×10⁻⁶ cm/s	2.13
CN(c1cnc(-c2cc(F)c(C3=CC(F)NC(F)=C3)cc2O)cn1)[C@H]1C[C@]2(C)CC[C@@](C)(N2)[C@H]1F (single isomer, unassigned) [Compound 63E2]	MDR1	×10⁻⁶ cm/s	0.58
CN(c1cnc(-c2ccc(-c3ccn(C)c(=O)c3)cc2O)cn1)[C@@H]1CC2CCC[C@H](N2)[C@@H]1F (single isomer, unassigned) [Compound 83E1]	MDR1	×10⁻⁶ cm/s	0.94
Cc1nc(-c2ccc(-c3cnc(N(C)[C@@H]4CC5CC[C@H](N5)[C@@H]4F)cn3)c(O)c2)no1 (single isomer, unassigned) [Compound 69E1]	MDR1	×10⁻⁶ cm/s	9.43

Need Papp A→B at 120 min, 5 μM for each of these compounds.
1. CN(c1cnc(-c2cc(F)c(-c3cnn(C)c3)cc2O)cn1)[C@@H]1CC2N[C@H](C1)CC2(F)F (single isomer, unassigned) [Compound 66E2]
2. CN(c1cnc(-c2cc(F)c(-n3ccnn3)cc2O)cn1)[C@@H]1CC2CC[C@H](N2)[C@@H]1F (single isomer, unassigned) [Compound 21E1]
3. CN(c1cnc(-c2ccc(-c3cn[nH]c3)cc2O)cn1)[C@H]1C[C@]2(C)CCC[C@@](C)(N2)[C@H]1F [Compound 23E2]
4. COc1cc(-c2cc(O)c(-c3cnc(N(C)[C@H]4C[C@@H]5CCC(N5)[C@H]4F)cn3)cc2F)ccn1 (single isomer, unassigned) [Compound 30E2]
5. CNC(=O)c1cc(O)c(-c2cnc(N(C)[C@H]3C[C@@H]4CCC(N4)[C@H]3F)cn2)cc1F (single isomer, unassigned) [Compound 15E2]
6. CN(c1cnc(-c2ccc(-c3ccn(C)c(=O)c3)cc2O)cn1)[C@@H]1CC2CC[C@H](N2)[C@@H]1F (single isomer, unassigned) [Compound 45E1]

stdout:
22.7
8.48
5.71
2.55
2.66
1.3

====

Test system: MDR1-MDCK cell monolayers
Details: dog, MDCK-MDR1, 120 min, 5 μM, pH 7.4
Cut-off 40% on MDCK-MDR1: % Recov A-B (%): below means class 1, at or above means class 0.

Compound	Qualitative Label
COc1cc(-c2ccc(-c3cnc(N(C4CC4)[C@@H]4CC5CC[C@H](N5)[C@@H]4F)cn3)c(O)c2)cc(F)n1 (single isomer, unassigned) [Compound 52E1]	class 1

stdin: Here's an entry: CN(c1cnc(-c2ccc(-c3ccn(C)c(=O)c3)cc2O)cn1)[C@@H]1CC2CCC[C@H](N2)[C@@H]1F (single isomer, unassigned) [Compound 83E1] . Is its MDCK-MDR1: % Recov A-B (%) below 40%?
stdout: class 0

stdin: Here's an entry: O=c1cc(-c2cc(O)c(-c3cnc(N(C4CC4)[C@H]4C[C@@H]5CCC(N5)[C@H]4F)cn3)cc2F)ccn1CF (single isomer, unassigned) [Compound 39E2] . Is its MDCK-MDR1: % Recov A-B (%) below 40%?
stdout: class 0

====

Tested on: MDR1-MDCK cell monolayers
Details: dog, MDCK-MDR1, 120 min, 5 μM, pH 7.4
Kind request: treat 80% as inclusive, so MDCK-MDR1: % Recov B-A (%) at 80% or higher is criterion met, anything lower is criterion not met.

Example entries and their recorded answers appear below.
Molecule	Qualitative Label
CN(c1cnc(-c2cc(F)c(-c3ccn(C)c(=O)c3)cc2O)cn1)[C@H]1C[C@@H]2CCCC(N2)[C@H]1F (single isomer, unassigned)	criterion met
CN(c1cnc(-c2cc(F)c(-c3cn[nH]c3)cc2O)cn1)[C@H]1C[C@]2(C)CC[C@@](C)(N2)[C@H]1F	criterion not met
COc1cc(-c2ccc(-c3cnc(N(C)[C@@H]4CC5COC[C@H](N5)[C@@H]4F)cn3)c(O)c2)cnn1 (single isomer, unassigned)	criterion met

stdin: Evaluate Cc1cc(-c2ccc(-c3cnc(N(C)[C@H]4C[C@@H]5CCC(N5)[C@H]4F)cn3)c(O)c2)cc(=O)[nH]1 (single isomer, unassigned) : MDCK-MDR1: % Recov B-A (%) at minimum 80%?
stdout: criterion not met

stdin: Evaluate COc1cc(-c2cc(O)c(-c3cnc(N(C)[C@H]4C[C@@H]5CCC(N5)[C@H]4F)cn3)cc2F)ncn1 (single isomer, unassigned) : MDCK-MDR1: % Recov B-A (%) at minimum 80%?
stdout: criterion not met

stdin: Evaluate Cn1cc(-c2ccc(-c3cnc(N(C4CC4)[C@H]4C[C@]5(C)CC[C@@](C)(N5)[C@H]4F)cn3)c(O)c2)cn1 : MDCK-MDR1: % Recov B-A (%) at minimum 80%?
stdout: criterion not met

====

System: MDR1
Assay: in vitro
Settings: dog, MDCK-MDR1, pH 7.4, MDCK-MDR1: Papp B-A (10^−6, cm/s)
Kind request: treat 30 ×10⁻⁶ cm/s as inclusive, so Papp B→A at 120 min, 5 μM at 30 ×10⁻⁶ cm/s or higher is fulfilled, anything lower is not fulfilled.

> print(dat)
                                   compound  qualitative.label
1  COc1cc(-c2ccc(-c3cnc(N(C)[C@@H]4CC5CC[C@H](N5)[C@@H]4F)cn3)c(O)c2)cc(F)n1 (single isomer, unassigned) [Compound 44E1]      not fulfilled

stdin: Evaluate CN(c1cnc(-c2ccc(-c3cnn(C)c3)cc2O)cn1)[C@@H]1C[C@H]2CCC[C@H](N2)[C@@H]1F [Compound 4E1] : Papp B→A at 120 min, 5 μM at minimum 30 ×10⁻⁶ cm/s?
stdout: fulfilled

stdin: Evaluate CN(c1cnc(-c2cc(F)c(-c3ccn(CF)c(=O)c3)cc2O)cn1)[C@H]1C[C@@H]2CCC(N2)[C@H]1F (single isomer, unassigned) [Compound 32E2] : Papp B→A at 120 min, 5 μM at minimum 30 ×10⁻⁶ cm/s?
stdout: fulfilled

stdin: Evaluate CNC(=O)/C=C/c1cc(O)c(-c2cnc(N(C)[C@@H]3CC4CC[C@H](N4)[C@@H]3F)cn2)cc1F (single isomer, unassigned) [Compound 60E1] : Papp B→A at 120 min, 5 μM at minimum 30 ×10⁻⁶ cm/s?
stdout: fulfilled

stdin: Evaluate COc1cc(-c2ccc(-c3cnc(N(C)[C@H]4C[C@@H]5CCC(N5)[C@H]4F)cn3)c(O)c2)ccn1 (single isomer, unassigned) [Compound 43E2] : Papp B→A at 120 min, 5 μM at minimum 30 ×10⁻⁶ cm/s?
stdout: not fulfilled
